Where a name gives a salt, the structure may show the parent alone.
Here's what we have: Ki numbers for human norepinephrine transporter (hNET) (Homo sapiens, UniProt P23975).
readout: Ki (nM)

Examples with answers:
Task: Any idea what Ki came out for Fc1ccc(F)c(-n2nc(OC[C@H]3CCCNC3)c3ccccc32)c1 [Example 38, hydrochloride] on human norepinephrine transporter (hNET) (Homo sapiens, UniProt P23975)?
Output: 6.09

Task: Could you do the same for Fc1ccc2c(c1)c(OC1CCNCC1)nn2-c1ccc(F)c(F)c1 [Example 97, hydrochloride] , please?
Output: 28.5

Task: Could you do the same for Fc1ccc(F)c(-n2nc(OCC3CCCNC3)c3ccccc32)c1 (racemic) [Example 31, hydrochloride] , please?
Output: 6.58

Task: Could you do the same for Fc1ccc(-n2nc(OC3CCNCC3)c3ccccc32)cc1F [Example 34, hydrochloride] , please?
Output: 30

Task: Could you do the same for Fc1ccc(F)c(-n2nc(OC[C@H]3CCCNC3)c3c(F)cccc32)c1 [Example 91, hydrochloride] , please?
Output: 7.88

(1) Fc1cccc(F)c1-n1nc(OC[C@H]2CCCNC2)c2c(F)cccc21 [Example 110, hydrochloride]
(2) Cc1ccc2c(OC3CCNCC3)nn(-c3ccccc3)c2c1 [Example 71, hydrochloride]
Task: Param pair: 1 , 2 . Output: the one whose Ki is numerically greater. // output: label of the selected item
Output: 2

====

Structures can show the parent of a compound that is named as a salt.
Here's what we have: Ki numbers for UniProt P31645.
readout: Ki (nM)

(1) Fc1ccccc1-n1nc(O[C@@H]2CCCN2)c2ccccc21 [Example 13, maleate]
(2) Fc1ccc2c(OC3CCNCC3)nn(-c3ccccc3F)c2c1 [Example 63, hydrochloride]
(3) Fc1ccc(F)c(-n2nc(OC[C@@H]3CCNC3)c3cc(F)ccc32)c1 [Example 40, hydrochloride]
Task: Please arrange the 3 compounds above from largest to smallest Ki value. List each label, following the requested order.
Output: 1, 3, 2
(1: 5290 nM, 3: 30.8 nM, 2: 19.4 nM)

====

tgt: UniProt P23975
Where a name gives a salt, the structure may show the parent alone.
readout: Ki (nM)

Examples with answers:
Task: Which Ki reading was recorded for the compound Fc1ccccc1-n1nc(OC2CCNCC2)c2cc(Cl)ccc21 [Example 102, hydrochloride] ?
Output: 71.5

Task: Could you do the same for Fc1ccccc1-n1nc(OC[C@H]2CNCCO2)c2ccccc21 [Example 5, hydrochloride] , please?
Output: 84

Task: Could you do the same for Fc1ccccc1-n1nc(OC[C@H]2CCCNC2)c2ccccc21 [Example 6, hydrochloride] , please?
Output: 1.65

Task: Could you do the same for Fc1ccc(-n2nc(OC3CCNCC3)c3c(F)cccc32)c(F)c1 [Example 88, hydrochloride] , please?
Output: 16.3

Task: Could you do the same for Fc1ccc(-n2nc(OC[C@H]3CCCNC3)c3cc(F)ccc32)cc1 [Example 80, hydrochloride] , please?
Output: 15

Task: Could you do the same for Fc1ccc(-n2nc(OC[C@H]3CCCNC3)c3c(F)cccc32)cc1 [Example 84, hydrochloride] , please?
Output: 38.1

(I) c1ccc(-n2nc(OC[C@H]3CCNC3)c3ccccc32)cc1 [Example 22, hydrochloride]
(II) Clc1ccc2c(c1)c(OC1CCNCC1)nn2-c1ccccc1 [Example 101, hydrochloride]
Task: Param pair: I , II . Output: the one whose Ki is numerically greater. // output: label of the selected item
Output: II
(II: 607 nM, I: 25.7 nM)

(a) c1ccc(-n2nc(OC[C@@H]3CNCCO3)c3cccnc32)cc1 [Example 105, hydrochloride]
(b) Fc1cccc(F)c1-n1nc(OC2CCNCC2)c2ccccc21 [Example 36, hydrochloride]
Task: Param pair: a , b . Output: the one whose Ki is numerically greater. // output: label of the selected item
Output: a

(A) Clc1ccc(-n2nc(OCC3CCCNC3)c3ccccc32)cc1 (racemic) [Example 68, hydrochloride]
(B) Fc1cccc(-n2nc(OC3CCNCC3)c3ccccc32)c1 [Example 43, hydrochloride]
Task: Hi there, can you help? I need to know whether A or B has lower measured Ki. // output: label of the selected item
Output: B
(B: 17.9 nM, A: 219 nM)

(1) Fc1ccc(-n2nc(OC3CCNCC3)c3ccccc32)cc1 [Example 42, hydrochloride]
(2) Fc1ccc2c(c1)c(OCC1CCCNC1)nn2-c1ccc(F)c(F)c1 (racemic) [Example 96, hydrochloride]
Task: Param pair: 1 , 2 . Output: the one whose Ki is numerically greater. // output: label of the selected item
Output: 2
(2: 49.5 nM, 1: 25.9 nM)

====

tgt: UniProtKB P23975
pKi: −log10 of the molar value. Structures can show the parent of a compound that is named as a salt.
readout: pKi

Task: Which pKi reading was recorded for the compound Fc1cccc(F)c1-n1nc(OC[C@H]2CCNC2)c2ccccc21 [Example 37, hydrochloride] ?
Output: 8.22

Task: Could you do the same for Fc1ccc(-n2nc(OC3CCNCC3)c3ccccc32)c(F)c1 [Example 10, hydrochloride] , please?
Output: 7.84

(a) Fc1ccccc1-n1nc(O[C@H]2CCCN2)c2ccccc21 [Example 12, hydrochloride]
(b) Fc1ccc(-n2nc(OC3CCNCC3)c3cc(F)ccc32)c(F)c1 [Example 56, hydrochloride]
Task: Hi there, can you help? I need to know whether a or b has lower measured pKi. // output: label of the selected item
Output: a
(a: 7.90, b: 8.21)

====

Here's what we have: pKi numbers for UniProt:P31645.
pKi: −log10 of the molar value. Counter-ions that a name gives are not always drawn.
readout: pKi

Task: Which pKi reading was recorded for the compound Clc1ccc(-n2nc(OC3CCNCC3)c3ccccc32)cc1 [Example 41, hydrochloride] ?
Output: 7.10

Task: Could you do the same for c1ccc(-n2nc(OC[C@@H]3CCNC3)c3ccccc32)cc1 [Example 14, hydrochloride] , please?
Output: 7.00

Task: Could you do the same for Fc1ccc(-n2nc(OC[C@@H]3CNCCO3)c3ccccc32)cc1F [Example 23, hydrochloride] , please?
Output: 5.82

(A) Fc1ccccc1-n1nc(OC[C@H]2CNCCO2)c2ccccc21 [Example 5, hydrochloride]
(B) Fc1cccc(-n2nc(OCC3CCCNC3)c3ccccc32)c1 (racemic) [Example 66, hydrochloride]
Task: Param pair: A , B . Output: the one whose pKi is numerically greater. // output: label of the selected item
Output: B

====

Where a name gives a salt, the structure may show the parent alone.
Here's what we have: Ki numbers for human serotonin transporter (hSERT) (Homo sapiens, UniProt P31645).
readout: Ki (nM)

Task: Any idea what Ki came out for Fc1ccc(-n2nc(OC[C@@H]3CNCCO3)c3ccccc32)c(F)c1 [Example 3, maleate] on human serotonin transporter (hSERT) (Homo sapiens, UniProt P31645)?
Output: 832

Task: Could you do the same for Fc1ccc(F)c(-n2nc(OCC3CCCNC3)c3ccccc32)c1 (racemic) [Example 31, hydrochloride] , please?
Output: 134

(A) Fc1ccc(-n2nc(OC3CCNCC3)c3ccccc32)cc1 [Example 42, hydrochloride]
(B) c1ccc(-n2nc(OC3CCCNC3)c3ccccc32)cc1 (racemic) [Example 15, hydrochloride]
Task: Hi there, can you help? I need to know whether A or B has lower measured Ki. // output: label of the selected item
Output: A
(A: 81 nM, B: 1460 nM)

====

pKi: −log10 of the molar value. Where a name gives a salt, the structure may show the parent alone.
Here's what we have: pKi numbers for human serotonin transporter (hSERT) (Homo sapiens).
readout: pKi

Task: Which pKi reading was recorded for the compound CC1(COc2nn(-c3ccccc3F)c3ccccc23)CCCNC1 (centres unmarked) [Example 53] ?
Output: 6.84

Task: Could you do the same for c1ccc(-n2nc(OC3CCNCC3)c3ccccc32)cc1 [Example 20, hydrochloride] , please?
Output: 6.91

Task: Could you do the same for Fc1ccc(-n2nc(OC[C@@H]3CCNC3)c3ccccc32)c(F)c1 [Example 9, hydrochloride] , please?
Output: 7.09

(A) Fc1ccc(-n2nc(OC3CCNCC3)c3ccccc32)cc1F [Example 34, hydrochloride]
(B) Fc1cccc(-n2nc(OC3CCNCC3)c3ccccc32)c1 [Example 43, hydrochloride]
Task: Param pair: A , B . Output: the one whose pKi is numerically greater. // output: label of the selected item
Output: A

(A) Fc1cccc(F)c1-n1nc(OC2CCNCC2)c2ccccc21 [Example 36, hydrochloride]
(B) Fc1ccc(F)c(-n2nc(OC3CCNCC3)c3cc(Cl)ccc32)c1 [Example 58, hydrochloride]
Task: Param pair: A , B . Output: the one whose pKi is numerically greater. // output: label of the selected item
Output: A
(A: 7.08, B: 6.87)

(P) Fc1ccc(F)c(-n2nc(OC[C@@H]3CCNC3)c3ccccc32)c1 [Example 30, hydrochloride]
(Q) Fc1ccc(-n2nc(OC[C@@H]3CCNC3)c3c(F)cccc32)c(F)c1 [Example 92, hydrochloride]
Task: Hi there, can you help? I need to know whether P or Q has lower measured pKi. // output: label of the selected item
Output: Q
